Listing of entries alongside the reported Rm.
- TEST: Retardation factor, Rm of the compound by reversed phase partition chromatography
- Assay type: physicochemical
MEASURED_PROPERTY: Rm

>>> data_value("CC(=O)N1CCN(c2ccc(Nc3c4ccccc4nc4ccccc34)cc2)CC1.Cl")
0.23
>>> data_value("Br.CN1CCN(c2ccc(Nc3c4ccccc4nc4cc([N+](=O)[O-])ccc34)cc2)CC1")
-0.78
>>> data_value("Cl.O=C1CCS(=O)(=O)N1c1ccc(Nc2c3ccccc3nc3ccccc23)cc1")
0.13
>>> data_value("CS(=O)(=O)N1CCN(c2ccc(Nc3c4ccccc4nc4ccccc34)cc2)CC1.Cl")
0.21
>>> data_value("COc1cc(NS(C)(=O)=O)ccc1Nc1c2ccccc2nc2c(OCCO)cccc12.Cl")
0.09
>>> data_value("CS(=O)(=O)NCCS(=O)(=O)Nc1ccc(Nc2c3ccccc3nc3ccccc23)cc1.Cl")
-0.14
>>> data_value("CN(C)C(=O)CCS(=O)(=O)Nc1ccc(Nc2c3ccccc3nc3ccccc23)cc1.Cl")
0.17
>>> data_value("Cl.NC(=O)CCS(=O)(=O)Nc1ccc(Nc2c3ccccc3nc3ccccc23)cc1")
-0.34
>>> data_value("CCOC(=O)NNc1ccc(Nc2c3ccccc3nc3ccccc23)cc1.Cl")
0.41
>>> data_value("COc1cc(NS(C)(=O)=O)ccc1Nc1c2ccccc2nc2c(OCC(O)CO)cccc12.Cl (centres undefined)")
-0.09
>>> data_value("COc1cc(NS(C)(=O)=O)ccc1Nc1c2ccccc2nc2c(C(=O)N[C@H]3[C@@H](OC)O[C@H](COC(C)=O)[C@@H](OC(C)=O)[C@@H]3OC(C)=O)cccc12.Cl")
0.62
>>> data_value("Cl.NC(=O)N1CCN(c2ccc(Nc3c4ccccc4nc4ccccc34)cc2)CC1")
-0.11
>>> data_value("COc1cc(NS(C)(=O)=O)ccc1Nc1c2ccccc2nc2c(C(=O)NCC(N)=O)cccc12.Cl")
-0.54
>>> data_value("Cl.O=C(O)CCS(=O)(=O)Nc1ccc(Nc2c3ccccc3nc3ccccc23)cc1")
0.1

These measurements were taken from ChEMBL document CHEMBL3272270.
